meta.source: ChEMBL document CHEMBL1949630

# experiment: Volume of distribution at steady state in C57BL/6 mouse at 0.5 mg/kg, iv and 1 mg/kg, po by LC/MS/MS analysis
# Assay type: ADME, organism-based
# particulars: in vivo, read-out: Vdss
Returns Met if the recorded Vd is greater than or equal to 10 L/kg, and Not met otherwise.

Below, 6 molecules whose answers are already recorded.
- molecule: "FC(F)(F)Oc1ccc(CN2CCC3(CC2)OC(c2ccc(Cl)cn2)c2ccccc23)cc1 (racemic)"
  assigned_category: "Met"
- molecule: "CC(c1ccc(F)cn1)N1CCC2(CC1)OC(c1cc(Cl)cc(Cl)c1)c1ccccc12 (racemic)"
  assigned_category: "Met"
- molecule: "Fc1ccc(CN2CCC3(CC2)OC(c2cc(Cl)cc(Cl)c2)c2ccccc23)nc1 (stereo unspecified)"
  assigned_category: "Met"
- molecule: "O=S(=O)(c1ccc(C(F)(F)F)cn1)N1CCC2(CC1)OC(c1cc(Cl)cc[n+]1[O-])c1ccccc12 (racemic)"
  assigned_category: "Met"
- molecule: "Clc1cc(Cl)cc(C2OC3(CCN(Cc4ccc(N5CCCC5)cn4)CC3)c3ccccc32)c1 (racemic)"
  assigned_category: "Not met"
- molecule: "O=S(=O)(c1ccc(OC(F)(F)F)cc1)N1CCC2(CC1)OC(c1cc(Cl)cc(Cl)c1)c1cccnc12 (racemic)"
  assigned_category: "Not met"

Decide: is the reported value of Vd for CC(c1ccc(F)cn1)N1CCC2(CC1)OC(c1cc(Cl)ccn1)c1ccccc12 (racemic) equal to or greater than 10 L/kg?
Met

Kindly determine if Vd recorded for CC(c1ccc(F)cn1)N1CCC2(CC1)OC(c1cc(Cl)cc(Cl)c1)c1cccnc12 (stereo unspecified) is above or exactly 10 L/kg.
Met

Threshold query (Vd >= 10 L/kg) on OCC(c1ccccc1)N1CCC2(CC1)OC(c1cc(Cl)cc(Cl)c1)c1cccnc12 (racemic)
Met

Quick check: does FC(F)(F)c1ccc(CN2CCC3(CC2)OC(c2cc(Cl)cc(Cl)c2)c2ccccc23)nc1 (racemic) have Vd greater than or equal to 10 L/kg?
Met

Vd >= 10 L/kg for FC(F)(F)Oc1ccc(CN2CCC3(CC2)OC(c2cc(Cl)cc(Cl)c2)c2cccnc23)cc1 (stereo unspecified) ?
Not met

----------
# experiment: Plasma concentration in established diet-induced obese C57BL/6 mouse at 3 mg/kg, po qd for 2 days
# Format: ADME, organism-based
# Design: dose 3 mg/kg, route oral
measure_name: concentration at 48 h (µM)
Numbers only; they are read as µM.

Which concentration at 48 h is listed for FC(F)(F)Oc1ccc(CN2CCC3(CC2)OC(c2cc(Cl)ccn2)c2ccccc23)cc1 (stereo unspecified) ?
0.05

----------
# experiment: Plasma concentration in established diet-induced obese C57BL/6 mouse at 10 mg/kg, po qd for 2 days
# Assay type: ADME, organism-based
# Parameters: dose 10 mg/kg, route oral
measure_name: concentration at 48 h (nM)
# value in nM; strip the unit string

Which concentration at 48 h is reported for this molecule? FC(F)(F)Oc1ccc(CN2CCC3(CC2)OC(c2cc(Cl)ccn2)c2ccccc23)cc1 (stereo unspecified)
240

----------
# experiment: Drug uptake in established diet-induced obese C57BL/6 mouse brain at 3 mg/kg, po qd for 2 days
# Assay type: ADME, organism-based
# Parameters: dose 3 mg/kg, route oral
# particulars: read-out: Drug uptake
measure_name: concentration at 48 h (µM)
Provide only the numeric value, understood in µM.

Record request: concentration at 48 h value, item FC(F)(F)Oc1ccc(CN2CCC3(CC2)OC(c2cc(Cl)ccn2)c2ccccc23)cc1 (stereo unspecified)
0.03

----------
# experiment: Oral bioavailability in rat at 2 mg/kg by LC/MS/MS analysis
# Assay type: ADME, organism-based
# particulars: in vivo
measure_name: bioavailability
Field: value (include unit after the number)

Reported bioavailability, compound FC(F)(F)Oc1ccc(CN2CCC3(CC2)OC(c2cc(Cl)ccn2)c2ccccc23)cc1 (stereo unspecified) : ____
60%

----------
# experiment: Fraction unbound in human plasma
# Format: ADME, cell-free
measure_name: fraction unbound
Give the value as a plain number.

- compound: "[O-][n+]1ccc(Cl)cc1C1OC2(CCN(Cc3ccc(OC(F)(F)F)cc3)CC2)c2ccccc21 (single isomer, unassigned)"
  fraction unbound: 0.006

Report fraction unbound for O=S(=O)(c1ccc(C(F)(F)F)cn1)N1CCC2(CC1)OC(c1cc(Cl)cc[n+]1[O-])c1ccccc12 (racemic) please.
0.05

----------
pIC50 listing for selected compounds.
# target_or_test_system: UniProt Q7TMR0
# Sequence (Q7TMR0 whole entry): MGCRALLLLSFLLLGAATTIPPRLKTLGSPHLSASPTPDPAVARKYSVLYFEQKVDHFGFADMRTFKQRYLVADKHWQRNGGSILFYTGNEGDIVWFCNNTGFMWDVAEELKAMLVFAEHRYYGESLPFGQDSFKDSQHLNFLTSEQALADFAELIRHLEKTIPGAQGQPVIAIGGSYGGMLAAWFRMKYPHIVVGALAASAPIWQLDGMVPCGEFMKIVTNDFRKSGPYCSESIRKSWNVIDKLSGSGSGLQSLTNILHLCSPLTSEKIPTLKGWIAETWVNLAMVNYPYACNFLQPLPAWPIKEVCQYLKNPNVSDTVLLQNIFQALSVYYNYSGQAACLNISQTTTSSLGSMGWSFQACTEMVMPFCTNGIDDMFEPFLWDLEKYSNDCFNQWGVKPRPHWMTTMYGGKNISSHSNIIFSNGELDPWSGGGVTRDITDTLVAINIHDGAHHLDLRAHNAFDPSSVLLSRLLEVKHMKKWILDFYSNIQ
# experiment: Inhibition of mouse PrCP
By convention, pIC50 is the negative base-10 log of a molar concentration.

Previously resolved entries follow.
- compound: "CC(c1ccc(F)cn1)N1CCC2(CC1)OC(c1cc(Cl)cc(Cl)c1)c1cccnc12 (stereo unspecified)"
  target_or_test_system: "UniProt Q7TMR0"
  observed_result: 8.96
- compound: "FC(F)(F)c1ccc(CN2CCC3(CC2)OC(c2cc(Cl)cc(Cl)c2)c2ccccc23)nc1 (racemic)"
  target_or_test_system: "UniProt Q7TMR0"
  observed_result: 9.15

Would you kindly share the measured pIC50 for FC(F)(F)Oc1ccc(CN2CCC3(CC2)OC(c2cc(Cl)cc(Cl)c2)c2ccncc23)cc1 (racemic) ?
8.89

For the compound FC(F)(F)Oc1ccc(CN2CCC3(CC2)OC(c2cc(Cl)cc(Cl)c2)c2cccnc23)cc1 (stereo unspecified) , what pIC50 is on record?
8.85

Please report the recorded pIC50 for FC(F)(F)Oc1ccc(CN2CCC3(CC2)OC(c2cc(Cl)cc(Cl)c2)c2ccccc23)cc1 (stereo unspecified) .
9.00

Which pIC50 value is on record for O=S(=O)(c1ccc(OC(F)(F)F)cc1)N1CCC2(CC1)OC(c1cc(Cl)cc(Cl)c1)c1cccnc12 (racemic) ?
8.74
